Assay: yeast display, Sf9 membrane polyspecificity reagent, FACS + sequencing; frameworks hold sequencing errors
measurement name: polyreactivity (PSR sort gate)

| residue codes | reported value |
| --- | --- |
| QVQLVESGGGLVQAGGSLRLSCAASGRTLGVYTMGWYRQAPGKERELVATISWDGGITYYADSVKGRFTISRDNAKNTVYLQMNSLKPEDTAVYYCAAVDHSYGWMDYWGQGTQVTVSS | low polyreactivity |
| QVQLVESGGGLVQAGGSLRLNCAASGITFGYNAMGWYRQPPGKERELVAAISSRGGSTYYADSVKGRFTISRDNAKNTVYLQMNSMKPEDTAVYYCAKDGGPGRYAWYWPVRMGYWGQGTQVTVSS | high polyreactivity |
| QVQLEESGGGLVQAGGSLRLSCAASGSIFVSVTMGWYRQAPGKERELVASIGRGSTTNHADSVKGRFTISRDNAKNIVYLLMNSLKPEDTAVYYCAALESYGKYHGYWGQGTQVTVSS | low polyreactivity |
| QVQLVESGGGLVQAGGSLRLSCAASGSTLAGYAMGWSRQAPGKERELVAAITRRGGRTYYADSVKGRFTISRDNAKNTVYLQMNSLKPEDTAVYYCAAQRSVKVDYWGQGTQVTVSS | high polyreactivity |
| QVQLVESGGGLVQAGGSLRLSCAASGSNFDLNAMGWYRQAPGKERELVAAISSGGGTYYADSVKGRFTISRDNAKTPVYLQMNSLKPEDTAVYYCNRVTRWTYNYWGQGTQVTVSS | high polyreactivity |

Give polyreactivity (PSR sort gate) for each listed item.
1. QVQLVESGGGLVQAGGSLRLSCAASGSIIVTYAMGWYRQAPGKERELVATISGGGSTTYADSVKGRFTISRDNAKNTVYLQMNSLKPEDTAVYYCATDARYTSHRTAGYDYWGQGTQVTVSS
2. QVQLVESGGGLVQAGGSLRLSCAASGFTFQYYAMGWYRQAPGKERELVAAISWSGASTYYADSVKGRFTISRDNAKNTVYLQMNSLKPEDTAVYYCAADYWGHEYDYWGQGTQVTVSS
3. QVQLVESGGGLVQAGGSLRLSCAASGSTFRGYAMGCYRQAPGKEREFVASISLSGGTDYADSVKGRFTISRDNAKNTVYLQMNSLKPEDTADYYCAAGYPAVSDSIEHNFWGQGTQVTVSS
4. QVQLVESGGGLVQAGGILRLSCAASGSIFVKYTMGWYRQAPGKERELVAAISFRGGSTYYADSVKGRFTISRDNAKNTVYLQMNSLKPEDTAVYYCNADGGWWPEYYWGQGTQVTVSS
5. QVQLVESGGGLVQAGGSLRLSCAASGFTIWDYAMGWYRQAPGKERELVAAISRRGGTTYYADSVKGRFTISRDNAKNTVYLQMNSLKPEETAVYYCATYSYTWLNYYWGQGTQVTVSS

**Result**
["low polyreactivity", "high polyreactivity", "low polyreactivity", "low polyreactivity", "high polyreactivity"]

Give polyreactivity (PSR sort gate) for each listed item.
1. QVQLVESGVGLVQAGGSLRLSCAASGRTFGYYAMGWYRLAPGKERELVAAISSGGSTNYADSVKGRFTISRDNAKNTVYLQMNSLKPEDTAVYYCAAKAWYYPGRRNYYQYYYWGQGTQVTVSS
2. QVQLVESGGGLVQAGGSLRLSCAASGRIFYRNAMGWYRQAPGQERELVAAISKSGGSTYYADSVKGRFTISRDNAKNTVYLQMNSLKPEDTAVYYSAAGTRRTDGYSWGQGTQVTVAS
3. EVQRVESGGGLVQAGCSLRLSCAASGINFSIYAMGWYRQAPGKERELVADITYSGGRTYYADSVKGRFTISRDNAKNTVYLQLYSLKPEDTAVYYCAAVGYGDYYWGQGTQVTVSS
4. QVQLVESGGGLVQAGGSLRLSCAASGTFSSYAMGWYRQAPGKERELVAAITNGGNTNYADSVKGRFTISRDNAKNTVYLQMNSLKPEDTAVYYCNARYGNESQGWEDYWGQGTQVTVSS
5. QVQLVESGGGLVQAGGSLRLSCEASGFTFGPYAMGWYRQAPGKEREWVAAIDDSGGNTYYADSVKGRFTISRDNAKNTVYLQRNSLKPEDTAVSYGNAFGPDYYHVYPAEDYWGQGTQVTVSS
6. QVQLVESGGGLVQAGGSLRLSCAASGRTFSKYAMGWYRQAPGKERELVASISSDGRTYYADSVKGRFTISRDNAKNTVYLQMNRLKPEDTAVYYCAAKEWYFPTWYTYYERDYWGQGTQVTVSS
7. QVQLVESGGGLVQAGGSLRLSCAASGSIFRPNAMGWYRQPPGKERELVALITRGGSTNYADSVKGRFTISRDNAKNTVYLQMNSLKPEDTAVYYCAVDLWYPPVWVRVSEFDYWGQGTQVTVSS
8. QVQLVESGGGLVQAGGSLRLSCAASGSIFYRNAMGWYRQAPGKERELVAAISARGGRTNYADSVKGRFTISRDNAKNTVYLQMNSLKPEDTAVYYCNTADSWYHRSQAYDYWGQGTQVTVSS

**Result**
high polyreactivity
high polyreactivity
high polyreactivity
low polyreactivity
low polyreactivity
high polyreactivity
low polyreactivity
high polyreactivity

Give polyreactivity (PSR sort gate) for each listed item.
1. QVQLVESGGGLVQAGGSLRLSCAASGRIFVYYAMGWYRPAPWKERELVAVITSGGITYYADSVKGRFTISRDNAKNTVYLQMNSLKPEDTAVYYCAARGHQYDPGSSGKKYYYWGQGTQVTVSS
2. QVQLLESGVGLVQEGGSLRLSCPASGRIFGSKAMGWYRQAPGKERELVAAITRGGSTNYADSVEGRFTISRDNAKNTVYLQMNSLKPEYTAVYYCAVRWYRKYNYWGQGTLVTVSS
3. QVQLVESGGGLVQAGGSLRLSCAASGFTFGGYVMGWYRQAPGKERELVAAINQTGGSTYYADSVKGRFTISRDNAKNTVYLQMNSLKPEDTAVYYCAALGYHGYRNYDYWGQGTQVTVSS

**Result**
["high polyreactivity", "high polyreactivity", "low polyreactivity"]

###

Experiment: yeast display, Sf9 membrane polyspecificity reagent, FACS + sequencing; frameworks hold sequencing errors
measurement name: polyreactivity (PSR sort gate)

Below, 5 sequences whose answers are already recorded.
| residue codes | measurement name | reported value |
| --- | --- | --- |
| QVQLVESGGGLVQAGGSLRLSCAASGIIFVSYAMGWYRQAPGKERELVAAITRRGSRTYYADSVKGRFTISRDNAKNTVYLQMNSLKPEDTAVYYCAADSQAARYHAYDYWGQGTQVTVSS | polyreactivity (PSR sort gate) | high polyreactivity |
| QVQLVESGGGLVQAGGSLRLSCAASGFIFQRYAMGWYRQAPGKERELVAAITKSGGSTYYADSVKGRYTISRDNAKNTVYLQMNSLKPEDTAVYYCNAYRYGSYRPHQEDYDYWGQGTQVTVSS | polyreactivity (PSR sort gate) | high polyreactivity |
| QVQLVESGGGLVQAGGSLRLSCAASGYIFSGYAMGWYRQAPGKERELVAAISSSGGRTYYADSVKGRFTISRDNAKNTVYLQMNSLKPEDTAVYYCAARIRTVAHVDYDYWGQGTQVTVSS | polyreactivity (PSR sort gate) | high polyreactivity |
| QVQLVESVVGLVQAGGSLRLSCAASVRTFVEYSMGWYRQAPGQERELVAAISSGGGSTYYADSVKGRFTISRDNAKNTVYLQMNSLKPEDTAVSYCATVGYRHRGWTSGYWGQGTQVTVSS | polyreactivity (PSR sort gate) | high polyreactivity |
| QVQLVESGGGLVQAGGSLRLSCAASGFTFYYYMGCYRQAPGKERELVAAITSGDTTYYADSVKGRFTISRDNAKNTVYLQMNSLKPEDTAVYYCNVDQAIYRWVPWEMDYWGQGTQVTVSS | polyreactivity (PSR sort gate) | low polyreactivity |

Give polyreactivity (PSR sort gate) for each listed item.
1. QVQLVESGGGLVQAGGSLRLSCAASGLIFVAYAMGWYRQAPGKERELVAAISRNGGSTYYADSVKGRFTISRDNAKNTVYLQMNSLKPEDTAVYYCAARYAYYTARYTQVKGLDYWGQGTLVTVSS
2. QVQLVESGGGLVQAGGSLRLSCAASGRIFDSNAMGWYRQAPGKERELVAAITYSGGGTFYADSVKGRITISRDNEKNTDYLQMNSLKPEDTAVYYCAARTSGKYRYYYWGQGTQVTVSS
3. QVQLVESGGGLVQAGGSLRLSCAASGSTFLTYAMGWYRQAPGKEREFVAAISSTGTGRTYYADSVKGRFTISRDNAKNTVYLQMNSLKPEDTAVYYCAADLYGTYDYWGQGTQVTVSS

**Result**
high polyreactivity
high polyreactivity
low polyreactivity

Give polyreactivity (PSR sort gate) for each listed item.
1. QVQLVESGGGLVQAGGSLRLSCAASGFTFVNYAMGWYRQAPGKERELVAAIRRSGSRTYYADSVKGRCTISRDIAKYTVYLQMNSLKPDDTPVYYCAAVWYRLYGYWGQGTQVTVSS
2. QVQLVETGGGLVQAGGSLRLSCASSGITFYRYGKGRYRQAPGKERELVAAITYNGGGTYYADSVKGRFTISRDNAKNTVYLQMNSLKPEDTAVYYCATLRPYAYPQYDSWGQGTQVTVSS
3. QVQLVESGGGLVQAGGSLRLSCAASGLIFGTYAMGWYRQAPGKERELVAVISSSGGSTYYADSVKGRFTISRDNAKNTVYLQMNSLKPEDTAVYYCNARAFRQGHFEYDYWGQGTQVTVSS

**Result**
1. low polyreactivity
2. high polyreactivity
3. low polyreactivity
